Data origin, for the record: paper PMC9230201

- assay comment: Plasma pharmacokinetics of phenolic metabolites after intake of the GCPE nutraceutical (LC-MS-QToF)
- study conditions: week 0
measured property: AUC0–24h (µM/min)
Numeric answer only, unit µM/min assumed.

COc1ccc(CCC(=O)O)cc1OS(=O)(=O)O [DHiFA-3′-sulfate] :: 0.3

Record summary for COc1cc(/C=C/C(=O)O[C@@H]2C[C@@](O)(C(=O)O)C[C@@H](O)[C@@H]2O)ccc1O [5-Feruloylquinic acid] : reported AUC0–24h = 0.09

Record summary for COc1cc(CC(=O)O)ccc1O [4′-Hydroxy-3′-methoxyphenylacetic acid] : reported AUC0–24h = 1.4

Record summary for O=C(O)CCc1ccc(OS(=O)(=O)O)c(O)c1 [DHCA-4′-sulfate] : reported AUC0–24h = 2.3
